- protocol: MTT cell viability of MRC5 cells
- Assay type: cell-based
- conditions: human, mrc5 cells, DHPG 0.625 μM alone; read-out: MTT Cell Viability (% of control)
measured endpoint: viability at 0.625 µM (%)
The reply should be a number in %, with the unit left off.

[ask] Return the recorded viability at 0.625 µM value; entry: Nc1nc2c(ncn2COC(CO)CO)c(=O)[nH]1 [DHPG, reference compound]
[reply] 100

###

- protocol: MTT cell viability of MRC5 cells
- Type: cell-based
- conditions: human, mrc5 cells, vesnarinone 3.88 μg/ml alone; read-out: MTT Cell Viability (% of control)
measured endpoint: viability

[ask] Assign viability to the following record: COc1ccc(C(=O)N2CCN(c3ccc4c(c3)CCC(=O)N4)CC2)cc1OC [vesnarinone]
[reply] 100%
